Assign IC50 to each entry below.
# System Under Test: Insulin-like growth factor 1 receptor (Homo sapiens)
# Method Summary: Inhibition of human IGF1R phosphorylation expressed in IGF-1-stimulated knockout mouse R+ cells treated 30 mins before IGF-1 stimulation measured after 20 mins by immunofluorescence
Numbers only, in µM.

The cases that follow already have their IC50 on record.
INSERT INTO assay_data (smiles_input, test_readout, result_number) VALUES
  ('Cc1cc(Nc2nc(NCc3cc(C)no3)ncc2Br)[nH]n1', 'IC50', 6.31),
  ('Cc1cc(Nc2nc(NCc3cc(C(C)(C)C)no3)ncc2Br)[nH]n1', 'IC50', 3.16),
  ('CCCc1cc(Nc2nc(NCc3cc(C)no3)ncc2Br)n[nH]1', 'IC50', 0.501),
  ('COc1cc(CCc2cc(Nc3ccnc(NCc4cc(C)no4)n3)n[nH]2)cc(OC)c1', 'IC50', 5.01),
  ('C=CCNc1ncc(Br)c(Nc2cc(C)[nH]n2)n1', 'IC50', 6.31),
  ('Cc1cc(CNc2ncc(Br)c(Nc3cc(CCc4ccccc4)[nH]n3)n2)on1', 'IC50', 10);

Please fill in: IC50 reported for Cc1cc(Nc2nc(NCCc3cccnc3)ncc2Br)[nH]n1 = 3.98

---

# System Under Test: Vascular endothelial growth factor receptor 2 (Homo sapiens)
# Sequence (P35968 whole entry): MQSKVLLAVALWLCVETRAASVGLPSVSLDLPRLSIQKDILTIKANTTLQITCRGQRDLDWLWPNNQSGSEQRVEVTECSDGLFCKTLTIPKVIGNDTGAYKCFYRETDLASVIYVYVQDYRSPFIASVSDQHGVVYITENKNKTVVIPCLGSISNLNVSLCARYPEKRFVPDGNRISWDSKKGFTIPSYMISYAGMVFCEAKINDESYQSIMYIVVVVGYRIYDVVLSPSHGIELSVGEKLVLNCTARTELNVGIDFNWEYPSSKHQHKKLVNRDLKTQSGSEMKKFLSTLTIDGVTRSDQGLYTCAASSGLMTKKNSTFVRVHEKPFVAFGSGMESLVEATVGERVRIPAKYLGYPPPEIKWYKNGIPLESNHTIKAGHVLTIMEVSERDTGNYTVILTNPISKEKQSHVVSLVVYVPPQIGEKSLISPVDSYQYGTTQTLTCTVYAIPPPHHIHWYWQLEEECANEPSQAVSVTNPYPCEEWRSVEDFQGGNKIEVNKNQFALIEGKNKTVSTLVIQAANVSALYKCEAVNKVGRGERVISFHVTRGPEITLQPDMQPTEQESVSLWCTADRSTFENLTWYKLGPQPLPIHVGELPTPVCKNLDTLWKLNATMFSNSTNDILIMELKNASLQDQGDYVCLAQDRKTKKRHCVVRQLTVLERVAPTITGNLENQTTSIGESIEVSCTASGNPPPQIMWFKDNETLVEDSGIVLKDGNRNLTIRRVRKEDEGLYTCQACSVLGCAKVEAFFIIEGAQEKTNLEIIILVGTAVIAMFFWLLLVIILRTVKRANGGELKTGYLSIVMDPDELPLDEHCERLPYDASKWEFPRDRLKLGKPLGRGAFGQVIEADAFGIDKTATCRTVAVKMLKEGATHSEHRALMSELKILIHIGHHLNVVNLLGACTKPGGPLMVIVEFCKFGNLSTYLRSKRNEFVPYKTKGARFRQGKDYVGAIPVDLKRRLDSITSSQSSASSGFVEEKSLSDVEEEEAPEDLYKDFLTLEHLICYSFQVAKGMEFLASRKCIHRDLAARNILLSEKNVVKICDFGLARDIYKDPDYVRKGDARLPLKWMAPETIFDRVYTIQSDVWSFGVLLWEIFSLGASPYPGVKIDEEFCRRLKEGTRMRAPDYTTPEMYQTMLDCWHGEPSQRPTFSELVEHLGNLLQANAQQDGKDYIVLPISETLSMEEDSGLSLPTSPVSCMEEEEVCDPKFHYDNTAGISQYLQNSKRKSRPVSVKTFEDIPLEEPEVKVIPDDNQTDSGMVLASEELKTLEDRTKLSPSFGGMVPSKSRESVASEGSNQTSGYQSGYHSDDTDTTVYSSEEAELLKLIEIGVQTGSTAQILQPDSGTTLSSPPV
# Method Summary: Inhibition of recombinant N terminal GST-tagged human KDR (805 to 1356) expressed in baculovirus infected Sf9 cells after 90 mins by caliper mobility shift assay
Decide using IC50 alone. Strictly below 800 nM: true (1). Equal to or above 800 nM: false (0).

Confirm or reject: IC50 of CCCc1cc(Nc2nc(NCc3cc(C)no3)ncc2Br)n[nH]1 lies strictly below 800 nM true (1)

Confirm or reject: IC50 of Cc1cc(Nc2nc(NCCCc3c[nH]nc3C)ncc2Br)n[nH]1 lies strictly below 800 nM true (1)

Confirm or reject: IC50 of Cc1cc(CNc2nccc(Nc3cc(C)[nH]n3)n2)on1 lies strictly below 800 nM false (0)

---

# System Under Test: Fibroblast growth factor receptor 1 (Homo sapiens)
# Sequence (P11362 whole entry): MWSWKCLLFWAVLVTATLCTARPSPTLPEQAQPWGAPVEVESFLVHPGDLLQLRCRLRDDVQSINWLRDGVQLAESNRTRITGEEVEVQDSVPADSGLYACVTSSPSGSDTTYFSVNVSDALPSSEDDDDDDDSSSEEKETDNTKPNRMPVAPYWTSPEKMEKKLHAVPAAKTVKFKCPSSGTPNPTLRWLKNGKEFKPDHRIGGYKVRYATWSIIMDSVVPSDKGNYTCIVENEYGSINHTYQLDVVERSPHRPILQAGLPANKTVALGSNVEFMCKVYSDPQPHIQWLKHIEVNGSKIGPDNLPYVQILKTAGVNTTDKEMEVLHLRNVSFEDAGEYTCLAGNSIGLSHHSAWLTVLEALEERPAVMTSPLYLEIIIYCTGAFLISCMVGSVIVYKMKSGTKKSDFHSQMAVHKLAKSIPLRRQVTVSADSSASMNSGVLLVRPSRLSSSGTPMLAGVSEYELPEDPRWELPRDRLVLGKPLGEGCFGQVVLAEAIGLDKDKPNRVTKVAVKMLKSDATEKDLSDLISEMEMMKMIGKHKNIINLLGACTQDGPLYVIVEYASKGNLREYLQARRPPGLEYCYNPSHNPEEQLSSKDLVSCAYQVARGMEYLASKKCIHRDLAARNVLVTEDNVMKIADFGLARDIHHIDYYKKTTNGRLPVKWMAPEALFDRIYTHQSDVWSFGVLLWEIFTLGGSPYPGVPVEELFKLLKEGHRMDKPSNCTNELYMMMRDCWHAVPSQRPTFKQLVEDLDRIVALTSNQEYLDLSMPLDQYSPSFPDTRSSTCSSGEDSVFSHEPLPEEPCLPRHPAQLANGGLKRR
# Method Summary: biochemical
# Description: Inhibition of recombinant N terminal GST-tagged human FGFR1 (456 to 765) expressed in baculovirus infected Sf21 cells after 40 mins by caliper mobility shift assay
Test Readout: IC50 (nM)
Give bare numbers, in nM.

INSERT INTO assay_data (smiles_input, result_number) VALUES
  ('Cc1cnc(CNc2ncc(Br)c(Nc3cc(C)[nH]n3)n2)cn1', 100),
  ('Cc1cc(Nc2nc(NCCc3ccco3)ncc2Br)n[nH]1', 200),
  ('Cc1cc(Nc2ccnc(NCc3cc(C4CC4)no3)n2)n[nH]1', 25.1),
  ('Cc1cc(CNc2ncc(Br)c(Nc3cc(CCc4ccccc4)[nH]n3)n2)on1', 2.51),
  ('Cc1cc(Nc2ccnc(NCc3cc(C(N)=O)no3)n2)[nH]n1', 100);

Please fill in: IC50 reported for Cc1cc(Nc2nc(NCc3cc(C(C)(C)C)no3)ncc2Br)[nH]n1 = 31.6

---

# System Under Test: Vascular endothelial growth factor receptor 2 (Homo sapiens)
# Method Summary: Inhibition of human KDR phosphorylation expressed in VEGF-stimulated HUVEC treated 90 mins before VEGF stimulation measured after 5 mins by ELISA
# Format: cell-based
Assign IC50 to each entry below.

The cases that follow already have their IC50 on record.
INSERT INTO measurements (smiles_input, result) VALUES
  ('Cc1cc(Nc2nc(NCc3cc(C)no3)ncc2Br)[nH]n1', '6.31 µM'),
  ('Cc1cc(Nc2nc(NCCc3cccnc3)ncc2Br)[nH]n1', '> 10 µM'),
  ('Cc1cc(Nc2nc(NCc3cc(C(C)(C)C)no3)ncc2Br)[nH]n1', '> 10 µM'),
  ('COc1cc(CCc2cc(Nc3ccnc(NCc4cc(C)no4)n3)n[nH]2)cc(OC)c1', '1.58 µM'),
  ('C=CCNc1ncc(Br)c(Nc2cc(C)[nH]n2)n1', '0.794 µM'),
  ('COCCCc1cc(Nc2nc(NCc3cc(C)no3)ncc2Br)[nH]n1', '> 10 µM');

Answer for every listed entry: what is its IC50? The entries follow.
1. CCCc1cc(Nc2nc(NCc3cc(C)no3)ncc2Br)n[nH]1
2. Cc1cc(CNc2ncc(Br)c(Nc3cc(CCc4ccccc4)[nH]n3)n2)on1

["6.31 µM", "1.58 µM"]

---

Assign pIC50 to each entry below.
# System Under Test: Insulin-like growth factor 1 receptor (Homo sapiens)
# Method Summary: Inhibition of recombinant N terminal His6-tagged human IGF1R (959 to end) expressed in baculovirus infected Sf21 cells after 80 mins by caliper mobility shift assay
One number for each entry, as −log10 of the molar value.

Answer for every listed entry: what is its pIC50? The entries follow.
1. C=CCNc1ncc(Br)c(Nc2cc(C)[nH]n2)n1
2. COCCCc1cc(Nc2ccnc(NCc3cc(C4CC4)no3)n2)n[nH]1
3. Cc1cc(Nc2nc(NCc3cc(C(C)(C)C)no3)ncc2Br)[nH]n1

1. 5.40
2. 4.90
3. 5.00

Answer for every listed entry: what is its pIC50? The entries follow.
1. Cc1cc(Nc2nc(NCCc3ccco3)ncc2Br)n[nH]1
2. Cc1cc(Nc2ccnc(NCc3cc(C4CC4)no3)n2)n[nH]1

[5.40, 5.00]

Please fill in: pIC50 reported for COc1cc(CCc2cc(Nc3ccnc(NCc4ccccn4)n3)[nH]n2)cc(OC)c1 = 4.10

---

A set of molecules tested on Fibroblast growth factor receptor 1 (Homo sapiens), with measured pIC50:
One number for each entry, as −log10 of the molar value.

INSERT INTO results (smiles_input, system_under_test, test_readout, result_number) VALUES
  ('CCCc1cc(Nc2nc(NCc3cc(C)no3)ncc2Br)n[nH]1', 'Fibroblast growth factor receptor 1 (Homo sapiens)', 'pIC50', 7.00),
  ('Cc1cc(Nc2nc(NCCc3cccnc3)ncc2Br)[nH]n1', 'Fibroblast growth factor receptor 1 (Homo sapiens)', 'pIC50', 5.60),
  ('Cc1cc(Nc2nc(NCc3cc(C(C)(C)C)no3)ncc2Br)[nH]n1', 'Fibroblast growth factor receptor 1 (Homo sapiens)', 'pIC50', 6.80);

Answer for every listed entry: what is its pIC50? The entries follow.
1. Cc1cc(Nc2nc(NCc3cc(C)no3)ncc2Br)[nH]n1
2. COCCCc1cc(Nc2nc(NCc3cc(C)no3)ncc2Br)[nH]n1
3. Cc1cc(CNc2ncc(Br)c(Nc3cc(CCc4ccccc4)[nH]n3)n2)on1

1: 6.80; 2: 6.10; 3: 7.20

---

# System Under Test: Insulin-like growth factor 1 receptor (Homo sapiens)
# Method Summary: Inhibition of recombinant N terminal His6-tagged human IGF1R (959 to end) expressed in baculovirus infected Sf21 cells after 80 mins by caliper mobility shift assay
Test Readout: IC50 (µM)
Give bare numbers, in µM.

INSERT INTO assay_data (smiles_input, test_readout, unit_abbreviation, result_number) VALUES
  ('Cc1cc(Nc2nc(NCc3ncccc3C)ncc2Br)n[nH]1', 'IC50', 'µM', 50.1),
  ('CCCc1cc(Nc2nc(NCc3cccnc3)ncc2Br)n[nH]1', 'IC50', 'µM', 1.58),
  ('Cc1cnc(CNc2ncc(Br)c(Nc3cc(C)[nH]n3)n2)cn1', 'IC50', 'µM', 12.6),
  ('Cc1cc(CNc2nccc(Nc3cc(CO)[nH]n3)n2)on1', 'IC50', 'µM', 39.8);

Pending molecule:
Please fill in: IC50 reported for CCCc1cc(Nc2nc(NCc3cc(C)no3)ncc2Br)n[nH]1 = 0.398

---

Assign pIC50 to each entry below.
# System Under Test: UniProt:P11362
# Method Summary: biochemical
Give bare numbers, as −log10 of the molar value.

INSERT INTO measurements (smiles_input, system_under_test, result_number) VALUES
  ('Cc1cc(CCNc2ncc(Br)c(Nc3cc(C)[nH]n3)n2)on1', 'UniProt:P11362', 6.40),
  ('COc1cc(CCc2cc(Nc3ccnc(NCc4ccccn4)n3)[nH]n2)cc(OC)c1', 'UniProt:P11362', 8.30),
  ('Cc1cc(Nc2nc(NCCc3cccnc3)ncc2Br)[nH]n1', 'UniProt:P11362', 6.30),
  ('Cc1cc(Nc2nc(NCc3ccccn3)ncc2Br)n[nH]1', 'UniProt:P11362', 6.70),
  ('Cc1cc(Nc2nc(NCc3cc(C)no3)ncc2Br)[nH]n1', 'UniProt:P11362', 7.20);

Answer for every listed entry: what is its pIC50? The entries follow.
1. CCc1cc(Nc2nc(NCc3ccccn3)ncc2Br)n[nH]1
2. COc1cc(CCc2cc(Nc3ccnc(NCc4cc(C)no4)n3)n[nH]2)cc(OC)c1
3. Cc1cc(Nc2nc(NCCCc3c[nH]nc3C)ncc2Br)n[nH]1
4. CCCc1cc(Nc2nc(NCc3cc(C)no3)ncc2Br)n[nH]1

7.40
8.70
6.90
8.00

Answer for every listed entry: what is its pIC50? The entries follow.
1. COCCCc1cc(Nc2nc(NCc3cc(C)no3)ncc2Br)[nH]n1
2. COc1cc(CCc2cc(Nc3ccnc(NCc4cc(C)on4)n3)n[nH]2)cc(OC)c1

7.20
8.70
